A collection of binders and their measured kon
- TARGET OR SYSTEM: T1, cynomolgus 4-1BB extracellular domain, His tag (cynomolgus, UniProt A9YYE7 24-186)
- T1 construct: extracellular domain; also called cynoPro1.ECD.His; ACRO-41B-C52H4; not shown: His tag
- T1 sequence (A9YYE7 entry or part of it): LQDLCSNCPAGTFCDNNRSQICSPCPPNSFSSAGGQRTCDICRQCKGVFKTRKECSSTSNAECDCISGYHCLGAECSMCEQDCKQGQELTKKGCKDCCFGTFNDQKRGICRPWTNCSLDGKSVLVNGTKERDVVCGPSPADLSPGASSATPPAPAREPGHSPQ
- EXPERIMENTAL PROTOCOL: SPR, Biacore T200; antibody captured on Protein G chip, cynomolgus 4-1BB ECD.His as analyte
State the value, then name its unit.

Please review the following examples before continuing.
2.27.16-u1-1-hIgG4L (antibody, V domains shown) VH: QEQLQESGPGLVKPSQTLSLTCTVSGGSINSQGYYWSWIRQHPGKGLEWIGYIYDSGSAYYNPSLERRVAISLDTSKNQFSLNLNSVTVADTAVYYCARIVAAGRIDPWGQGTLVTVSS VL: SYVLTQPPSVSVAPGQTARMTCGGDNIGIKIVHWYQQKAGQAPVLVVYDDNDRPSGIPDRFSGSNSGNTATLTISRVAAGDEADYYCQVWDRRSDHVVFGGGTKLTVL :: 230000 M⁻¹ s⁻¹
2.19.8-u1-3-hIgG4L (antibody, V domains shown) VH: QVQLVESGGGLVKPGGSLRLSCAASGFTFSDYFMSWIRQAPGKGLEWVSYISNAGSSKYYADSVKGRFTISRDNAKNSLYLQMNSLRAEDTAVYYCVRDPYSGSYSGWFDPWGQGTLVTVSS VL: SYDLTQPPSVSVSPGQTASITCSGDDLGDKYTSWYQQKPGQSPVLVVYQDHKRPSGIPERFSGSNSGNTATLTISGTQAMDEADYYCQAWDKGIVVFGGGTKLTVL :: 1.86e+06 M⁻¹ s⁻¹
2.27.16-u1-1-hIgG1L (antibody, V domains shown, Fully human antibody) VH: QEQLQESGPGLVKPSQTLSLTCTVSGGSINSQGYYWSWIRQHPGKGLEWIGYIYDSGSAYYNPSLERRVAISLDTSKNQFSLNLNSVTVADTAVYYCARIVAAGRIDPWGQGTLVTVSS VL: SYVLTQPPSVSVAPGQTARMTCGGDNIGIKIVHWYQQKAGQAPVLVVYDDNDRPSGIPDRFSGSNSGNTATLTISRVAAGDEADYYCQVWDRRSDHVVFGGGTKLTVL :: 217000 M⁻¹ s⁻¹

Please examine the following record next.
query: Return value of kon for input 2.19.8-u1-3-hIgG1L (antibody, V domains shown, Fully human antibody) VH: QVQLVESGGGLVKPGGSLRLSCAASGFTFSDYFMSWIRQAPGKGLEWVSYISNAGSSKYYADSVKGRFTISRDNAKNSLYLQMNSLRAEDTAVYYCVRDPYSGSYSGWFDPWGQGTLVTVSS VL: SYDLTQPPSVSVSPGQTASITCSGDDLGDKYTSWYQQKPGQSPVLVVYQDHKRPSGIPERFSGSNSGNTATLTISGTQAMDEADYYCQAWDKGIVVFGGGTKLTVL , no commentary.
result: 1.81e+06 M⁻¹ s⁻¹

# credit: patent US20210230287A1
